Target: T1, human EpCAM protein (human, UniProt P16422 24-265, biotinylated in the Octet assays (site not stated))
T1 construct: also called hu EpCAM; biotinylated human EpCAM protein
T1 sequence: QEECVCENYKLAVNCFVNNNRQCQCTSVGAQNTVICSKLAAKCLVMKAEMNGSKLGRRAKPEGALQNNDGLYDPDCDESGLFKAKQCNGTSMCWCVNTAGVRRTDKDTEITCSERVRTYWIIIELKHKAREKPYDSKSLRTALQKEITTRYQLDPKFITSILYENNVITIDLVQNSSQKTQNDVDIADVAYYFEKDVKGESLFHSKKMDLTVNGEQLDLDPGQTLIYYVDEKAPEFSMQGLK
Experiment: colorimetric ELISA
In this section, each of the binders is paired with its reported Human EpCAM/Control.

[
  {
    "binder": "EPL120 (VHH) VHH: QVQLQESGGGLVQAGGSLRLSCAASGFIFRAASISWYRQSPGNERELVATINSGGFTNYADSVLGRFTISRDNAKNTGYLQMNSLKPEDTAVYFCAATFLRSDGQPPIWGQGTQVTVSS",
    "Human EpCAM/Control": 5
  }
]

// switching to the query binder
stdin: Sample EPL138 (VHH) VHH: QVQLQESGGGLVQAGGSLRLSCAASGFIFRAASMDWYRQFPGNERESIATISSGGFTNYADSVKGRFTISRDNAKNTVYLQMNSLKPEDTAVYFCGATFLRSDGHHTINGQGTQVTVSS — what was its Human EpCAM/Control?
stdout: 3
